assay: Solubility in aqueous buffers and bio-relevant media; format: physicochemical; conditions: FaSSIF (pH=6.5)
readout: solubility (µg/mL)

compound | unit-spec | obs-value
N[C@@H](CC(=O)O)Cn1nnc(-c2ccc(Oc3ncc(Cl)cc3F)cc2)n1 [Form HB] | µg/mL | 90

----------
test: Solubility in aqueous buffers and bio-relevant media; type: physicochemical; conditions: simulated gastric fluid (SGF of pH=2)

compound | solubility
N[C@@H](CC(=O)O)Cn1nnc(-c2ccc(Oc3ncc(Cl)cc3F)cc2)n1 [Form HB] | 750 µg/mL

----------
experiment: Solubility in aqueous buffers and bio-relevant media; type: physicochemical; conditions: FeSSIF-V2 (pH=5.9)
readout: solubility (µg/mL)

molecule | obs-value
N[C@@H](CC(=O)O)Cn1nnc(-c2ccc(Oc3ncc(Cl)cc3F)cc2)n1 [Form B] | 180

----------
assay: Solubility in aqueous buffers and bio-relevant media; format: physicochemical; details: FeSSIF (pH=5.8)
readout: solubility

compound | obs-value
N[C@@H](CC(=O)O)Cn1nnc(-c2ccc(Oc3ncc(Cl)cc3F)cc2)n1 [Form HB] | 9 µg/mL

----------
experiment: Solubility in aqueous buffers and bio-relevant media; type: physicochemical; conditions: FaSSIF-V2 (pH=6.6)
readout: solubility (µg/mL)

compound | unit-spec | obs-value
N[C@@H](CC(=O)O)Cn1nnc(-c2ccc(Oc3ncc(Cl)cc3F)cc2)n1 [Form B] | µg/mL | 70
